These entries and their values trace back to patent US20260266848A1.

- System: WT MEF EVs
- TEST NAME: Quantitative LC-MS/MS proteomics of EVs from ISRIB-treated WT MEF cultures
- Format: cell-based, mouse
- Set-up: key: YES = protein abundance effect similar to DYT/WT
- DETAILS: EV protein abundance, WT + ISRIB vs WT, direction compared with DYT/WT
EXPERIMENTAL READOUT: ISRIB and DYT Parallel Direction

INSERT INTO results (molecule, experimental_readout, reported) VALUES
  ('Eef1e1 (protein, UniProt Q9D1M4 2-174, looked up) Eukaryotic translation …: AAAAELRLLEKSLGLKPGNKYSAQGERQIPVLQTNNGPSLMGLSTIATHLVKQASKEHLLGSTAEEKAMVQQWLEFRVTRVDGHSSKEDTQTLLKDLNSYLEDKVYLAGHNITLADILLYYGLHRFIVDLTVQEKEKYLNVSRWFCHIQHYPDIRQHLSSIVFIKNRLYANSH', 'ISRIB and DYT Parallel Direction', 'YES'),
  ('Apom (protein, UniProt Q9Z1R3 1-190, looked up) Apolipoprotein M: MFHQVWAALLSLYGLLFNSMNQCPEHSQLTALGMDDTETPEPHLGLWYFIAGAASTTEELATFDPVDNIVFNMAAGSAPRQLQLRATIRTKSGVCVPRKWTYRLTEGKGNMELRTEGRPDMKTDLFSSSCPGGIMLKETGQGYQRFLLYNRSPHPPEKCVEEFQSLTSCLDFKAFLVTPRNQEACPLSSK', 'ISRIB and DYT Parallel Direction', 'YES');
